systemName: T1, human PCSK9 (proprotein convertase subtilisin kexin type 9) (human, UniProt Q8NBP7 31-692)
T1 construct: Directly immobilized (SPR ProteOn), biotinylated (BLI), or in solution, depending on the assay; also called hPCSK9
T1 sequence (Q8NBP7 31-692 limits assumed): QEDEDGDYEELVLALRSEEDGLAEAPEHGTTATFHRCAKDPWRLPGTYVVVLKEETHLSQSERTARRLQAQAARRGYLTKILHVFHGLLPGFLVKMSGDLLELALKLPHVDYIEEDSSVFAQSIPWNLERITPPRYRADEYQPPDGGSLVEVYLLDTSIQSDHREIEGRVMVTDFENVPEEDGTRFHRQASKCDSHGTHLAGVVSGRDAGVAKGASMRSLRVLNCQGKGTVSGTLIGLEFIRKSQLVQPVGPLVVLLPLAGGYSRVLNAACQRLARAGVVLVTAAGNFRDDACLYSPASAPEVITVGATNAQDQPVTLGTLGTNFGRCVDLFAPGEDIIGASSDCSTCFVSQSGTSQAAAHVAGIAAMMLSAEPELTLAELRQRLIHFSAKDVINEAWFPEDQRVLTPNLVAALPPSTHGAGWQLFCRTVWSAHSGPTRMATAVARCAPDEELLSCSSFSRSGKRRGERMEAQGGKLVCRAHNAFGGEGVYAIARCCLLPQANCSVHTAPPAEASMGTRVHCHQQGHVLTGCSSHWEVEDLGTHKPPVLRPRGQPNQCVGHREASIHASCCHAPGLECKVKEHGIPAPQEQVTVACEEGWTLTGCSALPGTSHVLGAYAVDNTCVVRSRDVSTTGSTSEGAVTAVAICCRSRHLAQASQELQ
experimentSummary: BLI Octet Red, 37 C
Kindly state Kd for each of the entries shown.
Answers are plain numbers, in nM.

Answered examples (3):
binder | unitAnnotation | Kd
2382H03 (designed binder, Anti-PCSK9 Adnectin, His6-tagged) MGVSDVPRDLEVVAATPTSLLISWDAPAEGAYGYYRITYGETGGNSPVQEFTVPVSKGTATISGLKPGVDYTITVYAVEYPYPFAGYYHRPISINYRTEIDKPSQHHHHHH | nM | 0.677
2381G09 (designed binder, Anti-PCSK9 Adnectin, His6-tagged) MGVSDVPRDLEVVAATPTSLLISWDAPAGDGYGYYRITYGETGGNSPVQEFTVPVSKGTATISGLKPGVDYTITVYAVEFTFPGAGYYHRPISINYRTEIDKPSQHHHHHH | nM | 1.12
2381H09 (designed binder, Anti-PCSK9 Adnectin, His6-tagged) MGVSDVPRDLEVVAATPTSLLISWDAPAGGGYGYYRITYGETGGNSPVQEFTVPVSKGTATISGLKPGVDYTITVYAVEFDFVGAGYYHRPISINYRTEIDKPSQHHHHHH | nM | 3.23

Here are 7 binders. What values of Kd were reported for them?
1. 2381F11 (designed binder, Anti-PCSK9 Adnectin, His6-tagged) MGVSDVPRDLEVVAATPTSLLISWDAPADGGYGYYRITYGETGGNSPVQEFTVPVSKSTATISGLKPGVDYTITVYAVEYTFPGAGYYHRPISINYRTEIDKPSQHHHHHH
2. 2381B04 (designed binder, Anti-PCSK9 Adnectin, His6-tagged) MGVSDVPRDLEVVAATPTSLLISWEPFSRLPGGGEYYRITYGETGGNSPLQQFTVPGSKGTATISGLKPGVDYTITVYAVEYPYEHSGYYHRPISINYRTEIDKPSQHHHHHH
3. 2382H09 (designed binder, Anti-PCSK9 Adnectin, His6-tagged) MGVSDVPRDLEVVAATPTSLLISWDAPAAAYGYYRITYGETGGNSPVQEFTVPSSKGTATISGLKPGVDYTITVYAVEFDFPGSGYYHRPISINYRTEIDKPSQHHHHHH
4. 2382C09 (designed binder, Anti-PCSK9 Adnectin, His6-tagged) MGVSDVPRDLEVVAATPTSLLISWDAPAEGYGYYRITYGETGGNSPVQEFTVPVSKGTATISGLKPGVDYTITVYAVEFDFPGSGYYHRPISINYRTEIDKPSQHHHHHH
5. 2451H07 (designed binder, Anti-PCSK9 Adnectin, His6-tagged) MGITDVPRDLEVVAATPTSLLISWNPPDVNYGYYRITYGETGGNSPLQEFTVPVSKGTATISGLKPGVDYTITVYAVEYPYAHAGYYHRPISINYRTEIDKPSQHHHHHH
6. 2382D05 (designed binder, Anti-PCSK9 Adnectin, His6-tagged; Same entry as 2451B06) MGVSDVPRDLEVVAATPTSLLISWDAPADGGYGYYRITYGETGGNSPVQEFTVPVSKGTATISGLKPGVDYTITVYAVEFDFPGAGYYHRPISINYRTEIDKPSQHHHHHH
7. 2382H10 (designed binder, Anti-PCSK9 Adnectin, His6-tagged) MGVSDVPRDLEVVAATPTSLLISWDAPAGGYGYYRITYGETGGNSPVQEFTVPVSKGTATISGLKPGVDYTITVYAVEFDFPGSGYYHRPISINYRTEIDKPSQHHHHHH

Result:
1. 1.59
2. 0.527
3. 1.86
4. 0.757
5. 2.08
6. 0.314
7. 1.4

Here are 2 binders. What values of Kd were reported for them?
1. 2451C06 (designed binder, Anti-PCSK9 Adnectin, His6-tagged) MGVSDVPRDLEVVAATPTSLLISWDAPAGAASYGYYRITYGETGGNSPVQEFTVPVSKGTATISGLKPGVDYTITVYAVEFPFPGAGYYHRPISINYRTEIDKPSQHHHHHH
2. 2381B02 (designed binder, Anti-PCSK9 Adnectin, His6-tagged) MGVSDVPRDLEVVAATPTSLLISWEPFSRLPGGGEYYRITYGETGGNSPLQQFTVPGSKGTATISGLKPGVDYTITVYAVEYPYDYSGYYHRPISINYRTEIDKPSQHHHHHH

Result:
1. 1.27
2. 3.29
